B1: PPP2R2B (parent)
chain: PSNRSFFSEIISSISDVKFSHSGR

Variants of: B1
Assay: protein stability index of a GFP-peptide fusion (GPS, HEK-293T) (PSI 1-6); higher = more stable;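 also: lentivirally expressed fusions sorted by FACS into six bins by GFP to DsRed ratio, PSI derived from sequencing read proportions per bin multiplied by bin number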
Settings: c terminus: a fixed tail appended
If the reported protein stability index equals or exceeds 2, assign fulfilled. If not, assign not fulfilled.

[
  {
    "mutation_id": "N3F",
    "category_label": "fulfilled"
  },
  {
    "mutation_id": "S12F",
    "category_label": "not fulfilled"
  },
  {
    "mutation_id": "P1V",
    "category_label": "not fulfilled"
  },
  {
    "mutation_id": "I14Y",
    "category_label": "fulfilled"
  },
  {
    "mutation_id": "K18T",
    "category_label": "fulfilled"
  },
  {
    "mutation_id": "F19M",
    "category_label": "fulfilled"
  },
  {
    "mutation_id": "N3D",
    "category_label": "fulfilled"
  },
  {
    "mutation_id": "S5P",
    "category_label": "fulfilled"
  },
  {
    "mutation_id": "P1G",
    "category_label": "fulfilled"
  },
  {
    "mutation_id": "S12Q",
    "category_label": "fulfilled"
  },
  {
    "mutation_id": "S20Q",
    "category_label": "fulfilled"
  },
  {
    "mutation_id": "F19C",
    "category_label": "fulfilled"
  },
  {
    "mutation_id": "R4M",
    "category_label": "fulfilled"
  }
]

The reported measurements were obtained from the supplement of paper PMC10567573.
